// IC50 collected for 5'-nucleotidase (Homo sapiens, UniProt P21589)
Numbers only here, please. The scale is µM.

{"SMILES": "C=C(C)[C@@H]1CC[C@]2(C(=O)O)CC[C@]3(C)[C@H](CC[C@@H]4[C@@]5(C)CC[C@H](OC(=O)NC(C)C)C(C)(C)[C@@H]5CC[C@]43C)[C@@H]12", "SYSTEM UNDER TEST": "5'-nucleotidase (Homo sapiens, UniProt P21589)", "IC50 [µM]": 5.69}

For the next question, use this compound.
Request: IC50, test system 5'-nucleotidase (Homo sapiens, UniProt P21589), entry C=C(C)[C@@H]1CC[C@]2(C(=O)O)CC[C@]3(C)[C@H](CC[C@@H]4[C@@]5(C)CC[C@H](OC(=O)N6CCNCC6)C(C)(C)[C@@H]5CC[C@]43C)[C@@H]12 16.8

====

- System: MIA PaCa-2
- TEST SUMMARY: Cytotoxicity against human MIA PaCa-2 cells assessed as inhibition of cell growth incubated for 72 hrs by CCK-8 assay
- Type: functional, cell-based
- CONDITION SET: MIA PaCa-2, 72 h
PROPERTY MEASURED: pIC50
Interpret pIC50 as the negative base-10 log of the concentration measured in mol/L.

Solved entries (count: 2):
{"COMPOUND": "C=C(C)[C@@H]1CC[C@]2(C(=O)O)CC[C@]3(C)[C@H](CC[C@@H]4[C@@]5(C)CC[C@H](O)C(C)(C)[C@@H]5CC[C@]43C)[C@@H]12 [BETULINIC ACID]", "pIC50": 4.57}
{"COMPOUND": "C=C(C)[C@@H]1CC[C@]2(C(=O)O)CC[C@]3(C)[C@H](CC[C@@H]4[C@@]5(C)CC[C@H](OC(=O)NC(C)C)C(C)(C)[C@@H]5CC[C@]43C)[C@@H]12", "pIC50": 4.11}

# ---- query compound ----
# get_value(readout='pIC50', item= Nc1ccn([C@@H]2O[C@H](CO)[C@@H](O)C2(F)F)c(=O)n1 [GEMCITABINE] ) 6.44

====

- SYSTEM UNDER TEST: 5'-nucleotidase (Mus musculus, UniProt Q61503)
- Sequence (Q61503 whole entry): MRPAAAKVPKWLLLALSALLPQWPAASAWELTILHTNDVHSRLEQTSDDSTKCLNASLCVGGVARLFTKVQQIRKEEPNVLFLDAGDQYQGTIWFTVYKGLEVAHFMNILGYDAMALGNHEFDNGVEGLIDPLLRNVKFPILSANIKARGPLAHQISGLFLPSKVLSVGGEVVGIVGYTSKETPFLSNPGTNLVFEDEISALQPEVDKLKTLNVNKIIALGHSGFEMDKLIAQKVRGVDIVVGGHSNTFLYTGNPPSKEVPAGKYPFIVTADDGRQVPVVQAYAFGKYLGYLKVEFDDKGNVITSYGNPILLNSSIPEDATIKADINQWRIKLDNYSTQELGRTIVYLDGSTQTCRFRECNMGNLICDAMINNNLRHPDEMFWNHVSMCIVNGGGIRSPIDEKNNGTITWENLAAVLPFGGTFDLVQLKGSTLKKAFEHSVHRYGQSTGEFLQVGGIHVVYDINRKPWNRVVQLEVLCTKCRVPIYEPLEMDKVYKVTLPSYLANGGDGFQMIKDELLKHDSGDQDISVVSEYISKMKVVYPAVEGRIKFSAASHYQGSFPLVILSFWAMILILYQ
PROPERTY MEASURED: IC50 (µM)
Reply numerically in µM, unit not repeated.

{"SMILES": "C=C(C)[C@@H]1CC[C@]2(C(=O)O)CC[C@]3(C)[C@H](CC[C@@H]4[C@@]5(C)CC[C@H](O)C(C)(C)[C@@H]5CC[C@]43C)[C@@H]12", "IC50 / µM": 68.8}

From here, focus on the item given below.
I'd like to know its IC50. The compound in question is C=C(C)[C@@H]1CC[C@]2(C(=O)O)CC[C@]3(C)[C@H](CC[C@@H]4[C@@]5(C)CC[C@H](OC(=O)N6CCNCC6)C(C)(C)[C@@H]5CC[C@]43C)[C@@H]12 33.6

====

Measured pIC50, listed per entry for reference.
- SYSTEM UNDER TEST: 5'-nucleotidase (Homo sapiens)
- Sequence (P21589 whole entry): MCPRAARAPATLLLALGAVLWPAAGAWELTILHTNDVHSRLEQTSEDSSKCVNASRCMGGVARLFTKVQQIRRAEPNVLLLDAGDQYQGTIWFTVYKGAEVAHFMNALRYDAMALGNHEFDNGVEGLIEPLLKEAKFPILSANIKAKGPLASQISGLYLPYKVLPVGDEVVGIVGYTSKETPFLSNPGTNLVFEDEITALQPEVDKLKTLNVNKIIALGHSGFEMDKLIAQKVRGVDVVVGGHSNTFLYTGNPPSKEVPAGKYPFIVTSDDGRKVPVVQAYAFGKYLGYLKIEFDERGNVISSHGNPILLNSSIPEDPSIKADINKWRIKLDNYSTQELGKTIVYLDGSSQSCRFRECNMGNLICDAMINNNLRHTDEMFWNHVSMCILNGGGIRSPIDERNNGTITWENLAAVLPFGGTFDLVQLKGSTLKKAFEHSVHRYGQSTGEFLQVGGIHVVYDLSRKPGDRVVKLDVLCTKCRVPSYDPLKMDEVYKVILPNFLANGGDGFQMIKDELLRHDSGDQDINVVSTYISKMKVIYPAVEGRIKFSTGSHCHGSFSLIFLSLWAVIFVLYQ
Conceptually, pIC50 converts a concentration in mol/L into minus its log10.

Lab note: need pIC50 for C=C(C)[C@@H]1CC[C@]2(C(=O)O)CC[C@]3(C)[C@H](CC[C@@H]4[C@@]5(C)CC[C@H](O)C(C)(C)[C@@H]5CC[C@]43C)[C@@H]12 on 5'-nucleotidase (Homo sapiens), anyone have it? 5.14

Observed pIC50 on 5'-nucleotidase (Homo sapiens) for C=C(C)[C@@H]1CC[C@]2(C(=O)O)CC[C@]3(C)[C@H](CC[C@@H]4[C@@]5(C)CCC(=O)C(C)(C)[C@@H]5CC[C@]43C)[C@@H]12 , please. 4.36

From: ChEMBL document CHEMBL5143600
